- Test system: c-Src
- ASSAY EXPLANATION: phosphorylation enrichment, bacterial display (enrichment ratio); higher = better substrate or ligand; peptides without Tyr show the background;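 further: 11-residue human phosphosite peptides and single-mutation variants displayed on the E. coli surface, counted by deep sequencing, each peptide's frequency after selection divided by its frequency in the unselected input library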;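 further: frequency after pTyr selection over input frequency; kinase dosed for 20-30% of maximal phosphorylation in three min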
// label = Fulfilled if phosphorylation enrichment is not less than 0.5, otherwise Not fulfilled

The examples below pair each entry with its known result.
INSERT INTO assay_data (sequence_text, group) VALUES
  ('LTTEVYFPSIK [C5orf64_Y60_A57T]', 'Fulfilled'),
  ('KDQPDYKFQPR [SOX9_Y172_H169Q_YF]', 'Not fulfilled'),
  ('RAMRRYLEWGE [ERBB3_Y680_R683W]', 'Fulfilled'),
  ('LLVVLNKFRCF [PSEN1_Y154_Y154N_YF]', 'Fulfilled'),
  ('GLRSYYETSKM [MAGED2_Y449]', 'Fulfilled');

Request: Quick check, phosphorylation enrichment >= 0.5? FQHLRYIKQLG [SAMHD1_Y146_R143H]
Response: Not fulfilled

Request: Try NIISFYLSRDP [CTSD_Y232_F229I] next.
Response: Not fulfilled

====

- EXPERIMENTAL TARGET: FGFR1 (UniProt P11362)
- Sequence (P11362 whole entry, looked up): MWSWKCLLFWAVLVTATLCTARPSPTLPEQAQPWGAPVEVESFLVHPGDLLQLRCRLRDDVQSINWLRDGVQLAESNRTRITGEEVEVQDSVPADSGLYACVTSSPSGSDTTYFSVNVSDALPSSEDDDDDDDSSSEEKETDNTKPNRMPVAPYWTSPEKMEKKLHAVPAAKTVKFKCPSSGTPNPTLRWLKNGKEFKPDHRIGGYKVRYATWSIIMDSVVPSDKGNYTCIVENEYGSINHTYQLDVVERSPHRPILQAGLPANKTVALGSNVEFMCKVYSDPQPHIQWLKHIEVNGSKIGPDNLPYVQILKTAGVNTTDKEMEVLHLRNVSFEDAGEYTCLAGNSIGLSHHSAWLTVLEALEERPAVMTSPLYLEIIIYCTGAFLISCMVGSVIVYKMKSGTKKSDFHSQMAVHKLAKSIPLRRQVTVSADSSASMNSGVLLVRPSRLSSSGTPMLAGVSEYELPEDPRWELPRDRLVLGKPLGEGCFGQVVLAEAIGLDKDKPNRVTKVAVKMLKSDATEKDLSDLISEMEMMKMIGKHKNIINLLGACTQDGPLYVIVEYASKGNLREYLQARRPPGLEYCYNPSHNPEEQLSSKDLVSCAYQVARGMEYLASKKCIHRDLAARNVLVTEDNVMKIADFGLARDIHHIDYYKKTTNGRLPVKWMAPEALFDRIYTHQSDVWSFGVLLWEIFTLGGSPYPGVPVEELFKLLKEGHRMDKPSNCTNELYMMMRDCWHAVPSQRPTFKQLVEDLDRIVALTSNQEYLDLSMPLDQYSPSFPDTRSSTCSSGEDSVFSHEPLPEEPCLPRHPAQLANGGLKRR
- ASSAY EXPLANATION: phosphorylation enrichment, bacterial display (enrichment ratio); higher = better substrate or ligand; peptides without Tyr show the background
Listing: phosphorylation enrichment of selected sequences
Form: value (number only, do not type unit).

Request: If you can, please state the reported phosphorylation enrichment value of GLGGVYGGASG [KRT8_Y54_G53V] .
Response: 0.448

Request: Try PESCFYKESWL [IQGAP2_Y630_L629F] next.
Response: 0.707

Request: Try RKETFYILSCR [GUCY2C_Y681_T682I] next.
Response: 0.553

Request: Try MLNTNYHLPPS [MT-ATP8_Y33] next.
Response: 3.4

Request: Try CTTIHYNYMFN [TP53_Y234_C238F] next.
Response: 0.657

Request: Try SSPRRYTIAAL [TTR_Y125_G121S] next.
Response: 0.383

Request: Try SSSNPYSTVTM [ACTN2_Y599] next.
Response: 0.543

Request: Try FFRCHYPLTTL [TNS4_Y644_R642C] next.
Response: 0.463

Request: Try AGADGYDFLAP [FOXL2_Y186_G187D_YF] next.
Response: 0.543

====

Listing: phosphorylation enrichment of selected sequences
- Test system: c-Src
- ASSAY EXPLANATION: phosphorylation enrichment, bacterial display (enrichment ratio); higher = better substrate or ligand; peptides without Tyr show the background

The following sequences have reported results that may help.
INSERT INTO results (sequence_text, result) VALUES
  ('SFPSYYTSHVQ [NEFL_Y443]', 0.737),
  ('PEFMVYKPQME [CCRL2_Y170_V168M]', 0.884),
  ('AVDMTYDGHPV [FLNB_Y1020_V1018M]', 3.61),
  ('FTFNSYFMHWV [IGHV1-46_Y51_T49N_YF]', 0.555),
  ('LKMLVYMDMSK [LRRC7_Y234_L235M]', 0.872);

Request: If you can, please state the reported phosphorylation enrichment value of TDIVAYSGRVQ [SPTBN2_Y477] .
Response: 1.05
